# measured-on: human GPR17 short isoform (Homo sapiens, UniProt Q13304)
# Sequence (Q13304 29-367): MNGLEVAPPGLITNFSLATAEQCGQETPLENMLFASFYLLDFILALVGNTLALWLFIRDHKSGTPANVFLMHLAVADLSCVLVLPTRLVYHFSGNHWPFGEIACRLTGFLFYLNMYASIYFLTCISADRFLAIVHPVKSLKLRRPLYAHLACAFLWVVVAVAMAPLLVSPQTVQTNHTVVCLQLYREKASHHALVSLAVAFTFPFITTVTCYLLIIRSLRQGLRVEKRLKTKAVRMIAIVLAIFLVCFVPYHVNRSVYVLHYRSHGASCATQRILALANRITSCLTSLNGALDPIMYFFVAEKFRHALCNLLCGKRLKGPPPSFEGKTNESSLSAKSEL
# assay-notes: GPR17 cAMP assay (TR-FRET cAMP quantification, antagonist mode)
# details: CHO-K1 cells stably expressing human GPR17 short isoform; EC80 of agonist MDL29,951; forskolin 15µM; IBMX 0.5mM; 30 minutes at room temperature; read-out: hGPR17 cAMP IC50
// boundary case: IC50 equal to 30 nM maps to false; strictly smaller maps to true

> print(dat)
                                    compound    cat
 1  COc1nc(NS(=O)(=O)c2c[nH]c3c(-c4ncccn4)c(C(F)F)ccc23)nc(OC)c1CC(F)F [Example 51]  false
 2  COc1nc(NS(=O)(=O)c2c[nH]c3c(-c4nccn4C)c(Cl)ccc23)nc(OC)c1OCC(F)F [Example 8]  false
 3  COc1nc(NS(=O)(=O)c2c[nH]c3c(-c4nccnc4C)cccc23)nc(OC)c1OCC(F)F [Example 54]  false
 4  COc1nc(NS(=O)(=O)c2c[nH]c3c(-c4cccnn4)cccc23)nc(OC)c1CC(F)F [Example 11]  false
 5  COc1nc(NS(=O)(=O)c2c[nH]c3c(-c4cccnn4)cccc23)nc(OC)c1OCC(F)F [Example 12]  false
 6  COc1nc(NS(=O)(=O)c2c[nH]c3c(-c4ccn(C)n4)c(Cl)ccc23)nc(OC)c1OCC(F)F [Example 61]   true
 7  COc1nc(NS(=O)(=O)c2c[nH]c3c(-c4ccncn4)c(Cl)ccc23)nc(OC)c1CC(F)F [Example 76]   true
 8  COc1nc(NS(=O)(=O)c2c[nH]c3c(-c4ncco4)c(Cl)ccc23)nc(OC)c1OCC(F)F [Example 2]  false
 9  COc1nc(NS(=O)(=O)c2c[nH]c3c(-c4ccncn4)c(Cl)ccc23)nc(OC)c1OCC(F)F [Example 77]   true
10  COc1nc(NS(=O)(=O)c2c[nH]c3c(-c4ncccn4)c(C)ccc23)nc(OC)c1OCC(F)F [Example 48]  false
11  COc1nc(NS(=O)(=O)c2c[nH]c3c(-c4cnccn4)c(C)ccc23)nc(OC)c1OCC(F)F [Example 58]  false
12  COc1nc(NS(=O)(=O)c2c[nH]c3c(-c4cnccn4)c(Br)ccc23)nc(OC)c1OCC(F)F [Example 41]   true
13  COc1nc(NS(=O)(=O)c2c[nH]c3c(-c4ncccn4)c(F)ccc23)nc(OC)c1CC(F)F [Example 27]  false
14  COc1nc(NS(=O)(=O)c2c[nH]c3c(-c4nccnc4F)c(Cl)ccc23)nc(OC)c1CC(F)F [Example 97]  false
15  COc1nc(NS(=O)(=O)c2c[nH]c3c(-c4ncccc4C)c(Cl)ccc23)nc(OC)c1OCC(F)F [Example 100]  false

These entries and their values trace back to patent EP4562003B1.
